src = paper PMC4476059

target-of-assay: full-length wild-type LPA1 (Homo sapiens)
experiment-description: cAMP assay
Format: cell-based
assay-setup: read-out: EC50, cAMP assay; B103 cells expressing full-length wild-type LPA1; 10 μM forskolin; n=2 (Figure 6D)
measurement-label: pEC50
Friendly reminder that pEC50 comes from taking -log10 of the concentration in mol/L.

Task item: Which measured pEC50 value corresponds to CCCCCCCC/C=C\CCCCCCCC(=O)OCC(O)COP(=O)(O)O (stereo not shown) ?
Reply: 9.46

----------
target-of-assay: full-length wild-type LPA1 (Homo sapiens, UniProt Q92633)
Sequence (Q92633 whole entry): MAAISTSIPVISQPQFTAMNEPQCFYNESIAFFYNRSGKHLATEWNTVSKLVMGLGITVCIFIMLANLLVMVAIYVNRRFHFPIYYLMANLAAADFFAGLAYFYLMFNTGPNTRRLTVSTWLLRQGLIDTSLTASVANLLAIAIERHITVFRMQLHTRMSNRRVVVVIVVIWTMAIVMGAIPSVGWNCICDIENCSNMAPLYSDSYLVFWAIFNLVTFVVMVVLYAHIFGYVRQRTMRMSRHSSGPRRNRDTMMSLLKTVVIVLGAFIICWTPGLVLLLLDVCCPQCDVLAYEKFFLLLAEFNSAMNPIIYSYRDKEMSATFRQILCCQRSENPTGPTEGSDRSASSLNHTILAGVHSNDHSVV
experiment-description: Ca2+ mobilization assay in B103 cells expressing full-length wild-type LPA1
Format: cell-based
assay-setup: read-out: EC50, Ca2+ mobilization assay; B103 cells heterologously expressing full-length wild-type LPA1; normalized to 3 μM 1-oleoyl-LPA (Figure 6D)
Measured pEC50 values are reported for all entries that follow.
Friendly reminder that pEC50 comes from taking -log10 of the concentration in mol/L.

[[record]]
compound = "CCCCC/C=C\\C/C=C\\C/C=C\\C/C=C\\CCCC(=O)OC[C@@H](O)COP(=O)(O)O [1-ALPA, 1-arachidonoyl-LPA]"
measurement_label = "pEC50"
observed_result = 5.95


Consider now this further compound.
Task item: Form: Entry = CCCCCCCC/C=C\CCCCCCCC(=O)OCC(O)COP(=O)(O)O (centres unmarked) [LPA 18:1 sn1, 1-oleoyl-LPA] | System = full-length wild-type LPA1 (Homo sapiens, UniProt Q92633) | pEC50 = ____
Reply: 6.84
